target: MCL-1ΔNΔC (Homo sapiens, UniProt Q07820); assay: High-throughput competitive FP binding screen, FITC-MCL-1 SAHB/MCL-1ΔNΔC interaction; parameters: the C-terminal alpha-helix was deleted from each of these constructs; GST (N, cleaved yes); made in house; conditions: FITC-MCL-1 SAHB/MCL-1ΔNΔC interaction pair, competitive FP screen
Sequence (Q07820 172-320 limits assumed, stated change not applied): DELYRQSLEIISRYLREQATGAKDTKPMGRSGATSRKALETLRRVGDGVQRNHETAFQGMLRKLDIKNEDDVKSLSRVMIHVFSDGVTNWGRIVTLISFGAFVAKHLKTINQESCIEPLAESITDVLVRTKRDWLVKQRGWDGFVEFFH
I would appreciate it if you labelled entries 1 when MCL-1% Bound is 30% or higher, otherwise -1.

CC1=C/C(=N\Nc2ccccc2Cl)CC1 :: 1
O=C1NC(=S)S/C1=C\c1ccc(-c2ccc(S(=O)(=O)N3CCOCC3)cc2)o1 :: 1
O=C1C=CC(=O)N1CCc1ccc(Cl)cc1 :: 1
Oc1ccc(/C=N/NC(=S)Nc2ccc(Cl)cc2Cl)c(O)c1O :: -1
O=C(O)c1cccc(-c2ccc(CC3Sc4ccccc4C3=O)o2)c1 (stereo not shown) :: 1
CCOC(=O)c1cc(CC)sc1NC(=O)C=C(C)C :: -1
N#CSC(C#N)Cc1ccccc1 (stereo not shown) :: 1
COc1ccc2c(c1)CC[C@@H]1C2CC[C@@]2(C)C1CC[C@@H]2NCCCCCCN1C(=O)CCC1=O (stereo partly shown) [drawing 18] :: 1
Cc1occc1-c1nnc2sc(Cc3cccc4ccccc34)nn12 :: 1
CCN1C(=O)C2Cc3cc(OC)c(OC)cc3CN2C1=O (stereo not shown) :: 1
CC1=C(C#N)C(=O)N(C)C(=O)/C1=C/c1ccc(-c2cccc(Cl)c2C)o1 :: -1
O=C(CSc1ncc(C(F)(F)F)cc1Cl)NC(=O)CN1CCCC1=O :: 1
O=C1NC(=S)N/C1=C1/C(=O)Nc2ccccc21 :: -1
O=C1CSCC(=O)N1c1csc(C(F)(F)F)c1-c1ccccc1 :: -1
Cc1ccc(NC(=S)Nc2ccc3nc(-c4ccco4)c(-c4ccco4)nc3c2)cc1 :: -1
O=C(Nc1ccccc1)C(C(F)(F)F)C(F)(F)F :: -1
Oc1cccc(C(c2ccc3cccnc3c2O)N2CCCC2)c1 (stereo not shown) :: 1
CCC(c1nnc(SCC(=O)NCCc2ccc(Cl)cc2Cl)o1)N(C)C (stereo not shown) :: 1
CCOc1ccc(S(=O)(=O)NC2C=C(Sc3nc[nH]n3)C(=O)c3ccccc32)cc1 (stereo not shown) :: -1
Cc1nn(C)c2nc(NNC(=O)c3cccc(C(F)(F)F)c3)ccc12 :: 1
O=c1c(O)c(-c2cc(O)c(O)c(O)c2)oc2cc(O)cc(O)c12 [Myricetin, reference compound] :: 1
CCc1ccc2c(c1)C1(NN=C(c3ccccc3)S1)C(=O)N2 (stereo not shown) :: 1
CCOc1cccc(/C=N/n2c(S)nnc2-c2ccc(Cl)cc2)c1O :: 1
COc1cc(C(c2nnnn2C2CCCCC2)N2CCc3ccccc3C2)ccc1O (stereo not shown) :: 1
O=C(c1ccccc1)c1ccc2nc(-c3ccco3)c(-c3ccco3)nc2c1 :: -1
COc1ccc(N(C)C(=S)Nc2ccc3nc(-c4ccco4)c(-c4ccco4)nc3c2)cc1 [drawing 44] :: -1
CCOc1ccc(S(=O)(=O)/N=C2/C=C(Sc3nc[nH]n3)C(=O)c3ccccc32)cc1 :: -1
O=c1oc2c(O)c(O)cc3c(=O)oc4c(O)c(O)cc1c4c23 [drawing 20] :: -1
CCCCCOc1ccc(C(=O)/C=C/C(=O)O)cc1 :: 1
Cc1conc1NC(c1cccs1)c1ccc2cccnc2c1O (stereo not shown) :: 1
CCOC(=O)c1c(C)oc2c1c1c(c3ccccc32)OCN(C2CC(C)(C)NC(C)(C)C2)C1 :: 1
Cc1oc(-c2cccc(C(F)(F)F)c2)cc1C(=O)O :: 1
Fc1ccccc1OCCSc1nnc2c(n1)[nH]c1ccccc12 :: 1
CCn1c(-c2ccccc2)cnc1S :: 1
CCOc1cc(C(Nc2cccnc2)c2ccc3cccnc3c2O)ccc1O (stereo not shown) [drawing 35] :: -1
Cc1ccc(C(c2c(O)ccc3ccccc23)N2CCOCC2)o1 (stereo not shown) :: 1
CC1=C(C#N)C(=O)N=C(O)/C1=C\c1ccc(-c2ccc(S(N)(=O)=O)cc2)o1 [drawing 192] :: -1
CC1=NN(c2ccccc2)C(=O)/C1=C/c1ccc(OC(=O)c2ccco2)c(Cl)c1 :: 1
CC1CCN(C2=NN3C(=N)/C(=C\c4ccc(SCc5ccco5)o4)C(=O)N=C3S2)CC1 :: -1
CC1(C)CC2CC(C)(CN2c2nc(N)c3c(N)nc4c(c3c2C#N)CC(=O)N4C2CCCC2)C1 (stereo not shown) :: -1
CNC(=S)N/N=C1\CCOc2ccc3ccccc3c21 :: 1
